MEASUREMENT TARGET: DNA-PK (Homo sapiens (Human))
ASSAY COMMENT: DNA-PK/biochemical assay (FlashPlate kinase assay)
EXPERIMENTAL CONTEXT: 5 μM ATP, 90 min, room temperature; read-out: Binding DNA-PK IC50
pIC50: −log10 of the molar value.
OBSERVATION TYPE: pIC50

Observe how each entry below is paired with its result.
MOLECULE	OBSERVATION TYPE	TEST RESULT
Cc1noc(C2CCCN(c3ncnc4cc(N5CCOCC5)ccc34)C2)n1 (stereo not drawn)	pIC50	6.00 to 6.30
COc1cccc(C(O)C2CCCN(c3ncnc4cc(N5CCOCC5)ccc34)C2)c1 (stereo not drawn)	pIC50	> 7.00
O=C(C1CCCN(c2ncnc3cc(N4CCOCC4)ccc23)C1)N1CCCCC1 (stereo not drawn)	pIC50	6.30 to 7.00

Task: Using the record for Cc1nc(C(O)C2CCCN(c3ncnc4cc(N5CCOCC5)ccc34)C2)sc1C (stereo not drawn) , state its measured pIC50.
Output: > 7.00

Task: Using the record for Cc1cnc(C(O)C2CCCN(c3ncnc4cc(N5CCOCC5)ccc34)C2)s1 (stereo not drawn) , state its measured pIC50.
Output: > 7.00

Task: Using the record for O[C@@H](c1nccs1)C1CCCN(c2ncnc3cc(N4CCOCC4)ccc23)C1 (stereo partly drawn) , state its measured pIC50.
Output: > 7.00

Task: Using the record for CC1CCCN(c2ncnc3cc(N4CCOCC4)ccc23)C1 (stereo not drawn) , state its measured pIC50.
Output: 6.30 to 7.00

Task: Using the record for "Oc1nc(N2CCCCC2)c2ccc(N3CCOCC3)cc2n1" , state its measured pIC50.
Output: < 6.00

====

MEASUREMENT TARGET: DNA-PK (Homo sapiens (Human), UniProt P78527)
ASSAY COMMENT: DNA-PK/biochemical assay (FlashPlate kinase assay)
EXPERIMENTAL CONTEXT: 5 μM ATP, 90 min, room temperature; read-out: Binding DNA-PK IC50
pIC50: −log10 of the molar value.
OBSERVATION TYPE: pIC50

Observe how each entry below is paired with its result.
MOLECULE	TEST RESULT
Clc1nc(N2CCCC(Cn3cccc3)C2)c2ccc(N3CCOCC3)cc2n1 (stereo not shown) [compound 30]	> 7.00
OC(c1ncco1)C1CCCN(c2ncnc3cc(N4CCOCC4)ccc23)C1 (stereo not shown) [compound 53]	> 7.00
COc1cccc(C2CCCN(c3ncnc4cc(N5CCOCC5)ccc34)C2)c1 (stereo not shown) [compound 22]	> 7.00
Cc1nc(CC2CCCN(c3ncnc4cc(N5CCOCC5)ccc34)C2)sc1C (stereo not shown) [compound 52]	> 7.00
c1ccc2sc(CC3CCCN(c4ncnc5cc(N6CCOCC6)ccc45)C3)cc2c1 (stereo not shown) [compound 35]	6.30 to 7.00

Task: Using the record for c1ccc(C[C@@H]2CCCN(c3ncnc4cc(N5CCOCC5)ccc34)C2)cc1 [compound 11] , state its measured pIC50.
Output: 6.30 to 7.00

Task: Using the record for c1ccc([C@H]2CCCN(c3ncnc4cc(N5CCOCC5)ccc34)C2)cc1 [compound 6] , state its measured pIC50.
Output: > 7.00

Task: Using the record for Cc1nc(N2CCCCC2)c2ccc(N3CCOCC3)cc2n1 [compound 34] , state its measured pIC50.
Output: < 6.00

Task: Using the record for Cc1cccc(C2CCCN(c3ncnc4cc(N5CCOCC5)ccc34)C2)c1 (stereo not shown) [compound 27] , state its measured pIC50.
Output: > 7.00

Task: Using the record for c1csc(CC2CCCN(c3ncnc4cc(N5CCOCC5)ccc34)C2)n1 (stereo not shown) [compound 32] , state its measured pIC50.
Output: > 7.00

Task: Using the record for c1nc(N2CCCC(Cc3ccsc3)C2)c2ccc(N3CCOCC3)cc2n1 (stereo not shown) [compound 44] , state its measured pIC50.
Output: > 7.00

Task: Using the record for c1ccc2oc(C3CCCN(c4ncnc5cc(N6CCOCC6)ccc45)C3)nc2c1 (stereo not shown) [compound 26] , state its measured pIC50.
Output: 6.30 to 7.00

Task: Using the record for Fc1ccc2[nH]cc(C3CCCN(c4ncnc5cc(N6CCOCC6)ccc45)C3)c2c1 (stereo not shown) [compound 9] , state its measured pIC50.
Output: 6.00 to 6.30

meta.source: patent US9126952B2
